Entry source: the supplement of paper PMC10126150

Test system: ATP;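 note: ATP exposure 15 min at 22 °C before imaging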
Assay: switch fluorescence ratio, 500 uM ATP over buffer (Cy3 cluster intensity, sum of 5 cycles each) (fold (ratio)); higher = stronger signal-on switching upon ATP binding; sequences stand for … in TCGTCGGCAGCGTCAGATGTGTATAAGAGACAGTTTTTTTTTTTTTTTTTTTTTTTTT…TC
Conditions: aptamer strand: ATP DNA aptamer (quencher-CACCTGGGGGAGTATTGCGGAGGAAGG + anchor), 100 nM annealed; ATP concentration: 500 uM
Let's look at some sequences and their measured switch fluorescence ratio.
quantityMeasured: switch fluorescence ratio

1) GGAGGGGCTG 1.02
2) TTGGGAAGGG 1
3) CCTGGTCGAC 0.986
4) ACAAGATTGG 1.01
5) AGCTTGTCGG 1.01
6) ATCGGGTTAG 0.998
7) CAGGTGGTTG 1.01
8) TTATTTGCTG 1.02
9) ATAACGGAGT 0.99
10) AAGGGGGAGA 0.994
11) GCTAACAGAG 0.984
12) TGACCGTTTT 0.999
13) GGGGATTAGA 0.985
14) TTGTATGTCT 0.991
15) TGCGTCTTTG 1.01
16) TTTATTTCTT 0.982
17) TCGTGTTAGG 1.02
18) TATAAGGGGG 0.982
19) CATTTGGAAG 1.02
20) GATGTTCAGG 0.987
21) CGGGTTAAAA 0.971
22) GACTTAGGAC 1.02
23) TACTGGTGGT 0.992
24) CGCCGGGGAT 1
25) GGGGTTGAAG 0.979
26) AAGTAACGGT 1.02
27) GGGAGGGTGG 0.996
28) CAAATAGTCG 1.01
29) TGTGTCTATA 0.977
30) TGAGGGGGCT 0.986
31) GTATGGGATG 0.993
32) AGAAAGCGTT 1.02
33) GACGATGACG 0.987
34) GATGGGTACG 1.02
35) TGTGACAATG 0.997
36) TAGGTTATTG 0.995
37) TTGAGGCCTT 1.01
38) TATATGGCGT 0.989
39) CACACGGTTC 1.02
40) GCAAAAGAGA 0.994
41) TCAATGTAGT 1
42) TTGTATTTGT 0.999
43) CAGATTTGGG 1.01
44) TTTGTTTGAG 0.991
45) GGATTTGGCG 0.985
46) CTGTATTATA 0.996
47) CAAGTCCGTT 1
48) CAGGACAGCT 1.02
49) AGGGTATTTC 1.02
50) CTGGTCTATT 0.968
51) TAAAACAGCG 1.01
52) CGTTTAATCA 0.982
53) ATTGAGGAAT 0.965
54) TGGGGTCTGG 0.976
55) CAAAGGACGG 1.25
56) CGTTTAGTTG 1
57) GGGGATGTGG 0.99
58) TATAAGGTGT 1.23
59) ACGCCGGGGG 1.01
60) TTTTGGAGAA 1.02
61) GATATTCCTG 1
62) ACTCTTTATA 1.04
63) TTCCAGTTT 1
